Target: Factor X (FX), P00742
Sequence (P00742 whole entry, looked up): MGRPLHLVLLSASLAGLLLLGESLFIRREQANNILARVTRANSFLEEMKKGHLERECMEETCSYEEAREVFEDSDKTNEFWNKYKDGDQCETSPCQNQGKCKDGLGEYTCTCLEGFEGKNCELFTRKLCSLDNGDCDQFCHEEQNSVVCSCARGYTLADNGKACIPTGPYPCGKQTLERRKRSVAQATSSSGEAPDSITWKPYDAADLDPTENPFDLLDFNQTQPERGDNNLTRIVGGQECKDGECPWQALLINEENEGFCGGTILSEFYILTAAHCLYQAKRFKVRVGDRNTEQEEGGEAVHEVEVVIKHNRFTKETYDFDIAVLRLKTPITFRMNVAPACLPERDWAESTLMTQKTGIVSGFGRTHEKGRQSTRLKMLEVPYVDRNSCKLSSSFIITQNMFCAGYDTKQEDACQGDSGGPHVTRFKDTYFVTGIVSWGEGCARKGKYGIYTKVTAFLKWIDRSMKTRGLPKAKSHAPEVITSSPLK
# kcat values compiled below

>  <PROTEIN>
FIXa-K247N/N249S/R318Y/R338E/T343R (protein) chain 1: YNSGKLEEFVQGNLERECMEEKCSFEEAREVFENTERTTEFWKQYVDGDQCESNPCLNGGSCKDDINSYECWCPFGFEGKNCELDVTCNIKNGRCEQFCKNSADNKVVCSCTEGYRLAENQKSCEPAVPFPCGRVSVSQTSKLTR chain 2: VVGGEDAKPGQFPWQVVLNGKVDAFCGGSIVNEKWIVTAAHCVETGVKITVVAGEHNIEETEHTEQNRSVIRIIPHHNYNAAINKYNHDIALLELDEPLVLNSYVTPICIADKEYTNIFLKFGSGYVSGWGRVFHKGYSALVLQYLRVPLVDRATCLESTKFRIYNNMFCAGFHEGGRDSCQGDSGGPHVTEVEGTSFLTGIISWGEECAMKGKYGIYTKVSRYVNWIKEKTKLT

>  <READOUT UNIT>
s⁻¹

>  <kcat>
8

$$$$
>  <PROTEIN>
FIXa-Y155F/K247N/N249S/T343R/E410N (protein) chain 1: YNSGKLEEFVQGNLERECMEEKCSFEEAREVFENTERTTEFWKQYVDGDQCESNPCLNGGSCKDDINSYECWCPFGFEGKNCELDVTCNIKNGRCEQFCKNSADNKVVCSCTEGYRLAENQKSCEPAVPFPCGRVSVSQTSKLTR chain 2: VVGGEDAKPGQFPWQVVLNGKVDAFCGGSIVNEKWIVTAAHCVETGVKITVVAGEHNIEETEHTEQNRSVIRIIPHHNYNAAINKYNHDIALLELDEPLVLNSYVTPICIADKEYTNIFLKFGSGYVSGWGRVFHKGRSALVLQYLRVPLVDRATCLRSTKFRIYNNMFCAGFHEGGRDSCQGDSGGPHVTEVEGTSFLTGIISWGEECAMKGKYGIYTKVSRYVNWIKNKTKLT

>  <READOUT UNIT>
s⁻¹

>  <kcat>
7.9

$$$$
>  <PROTEIN>
FIXa-K247N/N249S/T343R/R403E/E410N (protein) chain 1: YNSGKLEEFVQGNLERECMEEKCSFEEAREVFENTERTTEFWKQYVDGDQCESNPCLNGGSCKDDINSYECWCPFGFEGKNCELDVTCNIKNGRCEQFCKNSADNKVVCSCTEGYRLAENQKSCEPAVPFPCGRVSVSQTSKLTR chain 2: VVGGEDAKPGQFPWQVVLNGKVDAFCGGSIVNEKWIVTAAHCVETGVKITVVAGEHNIEETEHTEQNRSVIRIIPHHNYNAAINKYNHDIALLELDEPLVLNSYVTPICIADKEYTNIFLKFGSGYVSGWGRVFHKGRSALVLQYLRVPLVDRATCLRSTKFRIYNNMFCAGFHEGGRDSCQGDSGGPHVTEVEGTSFLTGIISWGEECAMKGKYGIYTKVSEYVNWIKNKTKLT

>  <READOUT UNIT>
s⁻¹

>  <kcat>
8

$$$$
